B1: PTPN9 (parent)
chain: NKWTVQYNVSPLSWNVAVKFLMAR

# Variants of: B1
# MEASUREMENT NOTES: protein stability index of a GFP-peptide fusion (GPS, HEK-293T) (PSI 1-6); higher = more stable;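 note: lentivirally expressed fusions sorted by FACS into six bins by GFP to DsRed ratio, PSI derived from sequencing read proportions per bin multiplied by bin number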
# CONDITION DETAILS: c terminus: a fixed tail appended
QUANTITY: protein stability index

V18F | 2.44
N8Y | 3.61
A17P | 2.37
N1V | 2.06
F20T | 2.1
V5L | 2.96
S10C | 3.37
P11E | 2.43
W3F | 2.59
W3T | 1.46
V5S | 1.99
W3N | 1.31
W14H | 2.15
L12I | 2.07
L12R | 4.48
L21D | 2.03
L12S | 1.88
S10W | 2.48
V18L | 2.72
N8T | 2.15
W14Q | 2.62
V16H | 2.69
R24M | 2.65
N8P | 1.68
N8R | 2.26
W3E | 1.91
V5T | 3.23
F20N | 2.25
N8S | 2
L12V | 2.89
R24A | 3.97
K2W | 2.89
F20Y | 2.94
T4N | 1.81
F20I | 2.27
K19N | 1.63
L21V | 3.01
Y7G | 1.15
K2C | 3.56
W14E | 1.28
Y7L | 2.76
Q6P | 2.54
V9D | 2.06
Y7N | 2.14
S10V | 3.2
W14S | 1.78
